- assayed.target: Chromo domain-containing protein 1 (Saccharomyces cerevisiae (strain ATCC 204508 / S288c) (Baker's yeast)) (UniProt P32657)
- Sequence (P32657 whole entry, the tested form may be a part): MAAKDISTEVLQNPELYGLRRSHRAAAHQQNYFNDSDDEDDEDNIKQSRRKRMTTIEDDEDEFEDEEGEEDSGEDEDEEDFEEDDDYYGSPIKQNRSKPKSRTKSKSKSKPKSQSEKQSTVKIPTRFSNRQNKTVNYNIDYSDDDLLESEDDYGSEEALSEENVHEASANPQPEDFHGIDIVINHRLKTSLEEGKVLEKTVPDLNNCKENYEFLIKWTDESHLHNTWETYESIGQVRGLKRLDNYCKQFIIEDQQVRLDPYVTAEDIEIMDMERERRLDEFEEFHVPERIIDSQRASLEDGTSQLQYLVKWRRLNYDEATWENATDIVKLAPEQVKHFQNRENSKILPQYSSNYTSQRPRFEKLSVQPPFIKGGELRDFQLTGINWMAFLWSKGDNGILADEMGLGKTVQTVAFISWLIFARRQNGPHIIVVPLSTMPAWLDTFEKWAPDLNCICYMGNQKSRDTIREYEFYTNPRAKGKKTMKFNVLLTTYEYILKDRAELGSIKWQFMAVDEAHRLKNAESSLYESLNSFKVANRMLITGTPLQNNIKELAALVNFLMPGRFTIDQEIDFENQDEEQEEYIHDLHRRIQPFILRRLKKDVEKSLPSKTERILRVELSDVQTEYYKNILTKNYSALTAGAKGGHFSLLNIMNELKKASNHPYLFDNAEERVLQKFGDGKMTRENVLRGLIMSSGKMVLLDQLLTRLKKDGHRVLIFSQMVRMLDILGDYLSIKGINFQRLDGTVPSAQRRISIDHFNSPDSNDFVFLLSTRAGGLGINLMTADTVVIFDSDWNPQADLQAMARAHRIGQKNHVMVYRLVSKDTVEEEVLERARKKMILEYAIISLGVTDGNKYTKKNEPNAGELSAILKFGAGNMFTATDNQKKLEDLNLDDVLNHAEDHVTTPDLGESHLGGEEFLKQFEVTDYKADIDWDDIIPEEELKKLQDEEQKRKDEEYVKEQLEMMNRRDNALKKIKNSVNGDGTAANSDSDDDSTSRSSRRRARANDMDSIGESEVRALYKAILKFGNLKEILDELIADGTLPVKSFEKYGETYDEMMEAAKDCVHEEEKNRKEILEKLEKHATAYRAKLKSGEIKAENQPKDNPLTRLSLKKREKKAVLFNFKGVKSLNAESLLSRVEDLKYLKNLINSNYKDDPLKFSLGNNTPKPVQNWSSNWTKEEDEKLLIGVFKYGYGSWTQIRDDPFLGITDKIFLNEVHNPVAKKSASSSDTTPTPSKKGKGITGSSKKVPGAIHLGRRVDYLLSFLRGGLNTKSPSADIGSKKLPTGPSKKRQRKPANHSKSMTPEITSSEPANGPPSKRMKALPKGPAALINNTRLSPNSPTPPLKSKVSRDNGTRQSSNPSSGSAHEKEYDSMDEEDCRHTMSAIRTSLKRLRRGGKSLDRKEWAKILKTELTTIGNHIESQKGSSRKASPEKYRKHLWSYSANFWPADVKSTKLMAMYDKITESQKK
- assay.procedure: ScCHD-1 Enzyme Inhibition Assay; note: in the data most compounds retested in dose-response had high values
- Type: functional
- Parameters: scale not given: direction of the effect not stated beside the values
- stated.conditions: 30 µM
property: Percent Effect (%)
Write the answer as a number in %, unit excluded.

# Percent Effect of CN1CC(=O)N(c2cccc(F)c2)CC12CCN(Cc1cccnc1)C2 (stereo not drawn) = -1.97

Looking up COCCN(C)C(=O)c1ccc(OC)cc1O , I see its Percent Effect listed as 3.68

Item: CCC1CN(Cc2ccccc2)CCN1Cc1nnc(C2CCC2)o1 (stereo not drawn) | Percent Effect: -0.293

Reported Percent Effect ( O=C(CCc1nccs1)N1CCN(c2ccc(Br)cn2)CC1 ) = -21.6

Value of measured Percent Effect for the entry COc1cc(C2CC(=O)Oc3cc(C)[nH]c(=O)c32)ccc1OC(F)F (stereo not drawn) : -13

get_value(item= COC[C@@H]1CC[C@H]2[C@H](CCN2C(=O)c2ccncc2F)O1 , readout=Percent Effect) returns -2.68

Entry O=S(=O)(C1CC1)N1CCC2(COCc3cnc(N4CCOCC4)nc32)C1 (stereo not drawn) ; Percent Effect = -7.85

Recorded result, O=C(NCCCNC(=O)c1cccc(O)c1)Nc1ccc(F)cc1F , Percent Effect: -5.87

###

Can you tell me Percent Effect for the items I'm about to list?
- assayed.target: Sialic acid-binding Ig-like lectin 9 (Homo sapiens) (UniProt Q9Y336)
- Sequence (Q9Y336 whole entry): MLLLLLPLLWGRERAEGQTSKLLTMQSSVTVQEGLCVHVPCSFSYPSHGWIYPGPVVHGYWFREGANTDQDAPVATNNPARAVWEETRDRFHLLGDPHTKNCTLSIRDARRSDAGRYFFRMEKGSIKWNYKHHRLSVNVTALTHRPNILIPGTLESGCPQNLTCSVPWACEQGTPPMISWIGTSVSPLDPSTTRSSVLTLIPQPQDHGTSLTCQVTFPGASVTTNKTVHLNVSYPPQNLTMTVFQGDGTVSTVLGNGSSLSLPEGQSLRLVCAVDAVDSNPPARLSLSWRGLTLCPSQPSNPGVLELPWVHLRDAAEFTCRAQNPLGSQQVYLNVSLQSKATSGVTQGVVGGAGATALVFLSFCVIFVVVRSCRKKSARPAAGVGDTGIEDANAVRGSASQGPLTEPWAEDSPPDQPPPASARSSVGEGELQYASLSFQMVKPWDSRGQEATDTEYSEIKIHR
- assay.procedure: Hs-Siglec9 ALPHAscreen SOP 20170721
- Set-up: scale not given: direction of the effect not stated beside the values
- stated.conditions: 10 µM
Numeric answer only, unit % assumed.

Just so you know, measured Percent Effect for COc1ccc(CCNC(=O)C2CCC(Cn3cnnn3)CC2)cc1 (configuration not stated) came out at 3.74

So, O=C(Cc1ccccn1)N1CCN(C(=O)c2cccc3[nH]ncc23)CC1 ? Its Percent Effect was -3.99

Measured Percent Effect of CNC(=O)Nc1cc(-c2ccc(Br)cc2)nn1CCO : 1.93

For record CCCc1nnsc1C(=O)NCC1CCN(c2ccccn2)CC1 the listed Percent Effect is 2.44

// Percent Effect lookup, compound = Cn1ccnc1CN1CCC2(CC1)CN(CC1CC1)C(=O)CO2 , result: -0.145

// sample c1cnnc(N2CCCC(NCc3nc(C4CC4)no3)C2)c1 (configuration not stated) , its Percent Effect was 7.57

In plain terms, O=C(c1ccc(Cl)o1)N1CCCC(c2cc(C(F)(F)F)[nH]n2)C1 (configuration not stated) has a documented Percent Effect of -5.86

Briefly, Percent Effect measured for CN(C)C(=O)CN1CCCCC1c1nc(N)ncc1-c1ccccc1 (configuration not stated) : 1.52

// Percent Effect value for O=C(CCc1nccs1)N1CCC(N2CCNC2=O)CC1 : -5.29

# compound Cc1cnn(CCC(=O)N2CCOC(c3nc(C(C)(C)C)n[nH]3)C2)c1 (configuration not stated) ; its Percent Effect = 3.02

In plain terms, COc1cc(C)sc1C(=O)N1CCC(Nc2cccnc2)CC1 has a documented Percent Effect of 37.6

Measured Percent Effect, Cc1cc(C)n(CCCNC(=O)C(C)NC(=O)c2ccccc2Cl)n1 (configuration not stated) : -4.01

Entry CCOc1cc(C)ccc1NC(=O)N(C)Cc1cnn(C)c1 ; Percent Effect = 16.5

# Percent Effect (compound: COC(=O)c1ccc(N2CCN(CCN3CCOCC3)C(C)C2)cc1 (configuration not stated) ) is 3.41

The compound identified as CCN(CC)C(=O)Cn1ccc2cc(NC(=O)C3CCCO3)ccc21 (configuration not stated) registered its Percent Effect at 1.14

Sure, the documented Percent Effect for CC(O)CN1CCN(C(=O)c2ccc(N(C)C)nc2)CC1 (configuration not stated) is 0.151

Reported Percent Effect ( COc1ccc(C[C@H]2CN(c3nnc(C)s3)CC[C@@H]2OC)cc1 ) = -1.52
